# Test system: NCI/ADR cells
# assay-text: In vitro cytotoxicity, methylene blue staining, 72 h
# Type: cell-based
# experimental-setup: 72 hours at 37° C., as mitomycin C concentration, read-out: IC50 of Mitomycin C
recorded-metric: pIC50
On this scale, pIC50 is minus log10 of a concentration expressed in M (mol/L).

Exam item: pIC50 lookup needed for CO[C@@]12[C@H](COC(N)=O)C3=C(C(=O)C(C)=C(N)C3=O)N1C[C@@H]1N[C@@H]12 [free mitomycin C, mitomycin C] , thanks.
Marked response: 6.40

###

# System: IGrov-1 ovarian carcinoma cells
# assay-text: In vitro cytotoxicity, methylene blue staining, 72 h
# Type: cell-based, human
# experimental-setup: IGrov-1 cells, 72 hours at 37° C., as mitomycin C concentration; read-out: IC50 of Mitomycin C
recorded-metric: IC50 (nM)
State just the number; it will be interpreted in nM.

Exam item: What IC50 value was documented for this compound, CO[C@@]12[C@H](COC(N)=O)C3=C(C(=O)C(C)=C(N)C3=O)N1C[C@@H]1N[C@@H]12 [free mitomycin C, mitomycin C] ?
Marked response: 700
